B1: tRNA (parent)
chain: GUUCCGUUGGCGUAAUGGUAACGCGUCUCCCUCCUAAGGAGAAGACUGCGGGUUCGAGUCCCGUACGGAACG

- Variants of: B1
- ASSAY NOTES: yeast fitness relative to wild type (ratio to wild type); higher = fitter; tRNA-Arg(CCU), competitive growth, 37 C, YPD
This sample holds only a part of the variants without activity.
# yeast fitness per record follows

(Q) Can you look up the measured yeast fitness of C24U U32A U54A for me?
(A) ≤ 0.5

(Q) Subsequent entry: G6C C60U
(A) 0.712

(Q) Same read-out for U2A C11U ?
(A) 0.894

(Q) Could you do the same for C11G C27U C33U A65C G67A , please?
(A) ≤ 0.5

(Q) C5A C31G U47A , same question.
(A) 0.745

(Q) Please answer likewise for C33A A37U C55U A57C G58C
(A) ≤ 0.5

(Q) Next record, please: C5A U7C C29U C66U
(A) ≤ 0.5

(Q) Now give it for A36U A42C A43G U64C A70C too.
(A) 0.559

(Q) Item: C5A U26G
(A) 0.785

(Q) Also C30A C31U U59C , if possible.
(A) 0.983

(Q) Now the variant C30U C46A A70C
(A) 0.82

(Q) Next: U13G U47C
(A) 1.02

(Q) Same read-out for C4U C30A C62U ?
(A) 0.792

(Q) Thanks! And U19A U28C A69C ?
(A) 0.674

(Q) Consider next the variant C4U C22U C55U in the same way.
(A) 0.544

(Q) Try this variant next: C24A A45G A57U C62U
(A) ≤ 0.5

(Q) Another variant to check: C5A U7A A21G
(A) ≤ 0.5
